Biological target: T1, PACAP-R3 (human, UniProt P41587 24-438)
T1 sequence (looked up): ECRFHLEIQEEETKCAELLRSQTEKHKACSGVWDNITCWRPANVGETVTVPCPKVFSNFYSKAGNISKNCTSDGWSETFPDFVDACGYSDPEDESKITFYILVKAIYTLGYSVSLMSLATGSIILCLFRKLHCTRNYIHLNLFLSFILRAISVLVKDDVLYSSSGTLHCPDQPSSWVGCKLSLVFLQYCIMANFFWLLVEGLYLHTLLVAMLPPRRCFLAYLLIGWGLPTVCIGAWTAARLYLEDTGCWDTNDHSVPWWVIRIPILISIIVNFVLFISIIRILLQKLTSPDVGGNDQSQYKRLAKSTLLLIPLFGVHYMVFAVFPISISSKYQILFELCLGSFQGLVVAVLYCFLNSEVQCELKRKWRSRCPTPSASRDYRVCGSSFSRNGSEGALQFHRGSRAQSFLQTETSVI
Assay: cell-based or functional assay
Rule: R3 Selectivity of 40 or more gives YES; anything lower gives NO.

Worked examples, 2 binders total:
HSDAVFTDNYTRLRKQMAAKKYLNSIKNKN [R3P164]; YES
HSDAVFTDNYTRLRKQLAAKKYLNTIKNKRY [R3P67]; YES

-- ask Evaluate HSDAVFTDNYTRLRKQLAAKKYLNDIKKNQ [R3P35] : R3 Selectivity at minimum 40?
-- reply YES

-- ask Evaluate HSDAVFTDNYTRLRKQMAPKKYLNSIKNKR [R3P108] : R3 Selectivity at minimum 40?
-- reply NO

-- ask Evaluate HSDAVFTDNYTRLRKQLAAKKYLNDILKGGT [R3P23] : R3 Selectivity at minimum 40?
-- reply NO
